Origin of values: patent US6737383B1

Tested on: blackgrass
ASSAY_EXPLANATION: Test B pre/postemergence blackgrass
Format: in vivo, Alopecurus myosuroides
ASSAY_CONTEXT: Preemergence, Rate 500 g/ha; scale of 0 to 10 where 0 is no effect and 10 is complete control
MEASURED_ENDPOINT: Blackgrass plant response rating

{"MOLECULE": "Cc1ccccc1-n1c(=O)on(C(=O)N(c2ccc(OC(F)(F)F)cc2)C(C)C)c1=O [Compound 300]", "MEASURED_ENDPOINT": "Blackgrass plant response rating", "RECORDED_MEASUREMENT": 0}
{"MOLECULE": "CC(C)N(C(=O)n1oc(=O)n(-c2ccc3ccccc3c2)c1=O)c1ccc(Cl)cc1 [Compound 333]", "MEASURED_ENDPOINT": "Blackgrass plant response rating", "RECORDED_MEASUREMENT": 0}
{"MOLECULE": "C=C(C)Cn1c(=O)on(C(=O)N(c2ccccc2)C(C)C)c1=O [Compound 607]", "MEASURED_ENDPOINT": "Blackgrass plant response rating", "RECORDED_MEASUREMENT": 9}
{"MOLECULE": "CC(C)N(C(=O)n1oc(=O)n(C(C)C(=O)c2ccccc2)c1=O)c1ccc(F)cc1F (stereo not drawn) [Compound 511]", "MEASURED_ENDPOINT": "Blackgrass plant response rating", "RECORDED_MEASUREMENT": 0}
{"MOLECULE": "Cc1ccc(N(C(=O)n2oc(=O)n(-c3ccc4ccccc4c3)c2=O)C(C)C)cc1 [Compound 334]", "MEASURED_ENDPOINT": "Blackgrass plant response rating", "RECORDED_MEASUREMENT": 0}
{"MOLECULE": "CC(C)N(C(=O)n1oc(=O)n(CC(=O)N(C)C)c1=O)c1ccccc1 [Compound 588]", "MEASURED_ENDPOINT": "Blackgrass plant response rating", "RECORDED_MEASUREMENT": 8}
{"MOLECULE": "CCC(C)n1c(=O)on(C(=O)N(c2ccccc2)C(C)C)c1=O (stereo not drawn) [Compound 610]", "MEASURED_ENDPOINT": "Blackgrass plant response rating", "RECORDED_MEASUREMENT": 10}
{"MOLECULE": "CC(C)N(C(=O)n1oc(=O)n(C[Si](C)(C)C)c1=O)c1ccccc1 [Compound 577]", "MEASURED_ENDPOINT": "Blackgrass plant response rating", "RECORDED_MEASUREMENT": 6}
{"MOLECULE": "CCC(CC)n1c(=O)on(C(=O)N(c2ccccc2)C(C)C)c1=O [Compound 354]", "MEASURED_ENDPOINT": "Blackgrass plant response rating", "RECORDED_MEASUREMENT": 9}
